Target: HLA-A*68:02
Experiment: IEDB peptide-MHC binding, purified MHC/competitive/fluorescence; filed as Kd, often an IC50 or EC50 that approximates it; bounds were set here for any values at or beyond the usual limits of such assays
Settings: source organism: Influenza A virus (A/X-31(H3N2))
property-label: Kd (nM)
One number for each entry, in nM.

I am curious: what Kd value has been reported for CFMYSDFHF ?
210

---

Molecular target: HLA-B*18:01
Experiment: IEDB peptide-MHC binding, purified MHC/competitive/fluorescence; filed as Kd, often an IC50 or EC50 that approximates it; bounds were set here for any values at or beyond the usual limits of such assays
Conditions: source organism: Listeria welshimeri serovar 6b str. SLCC5334
pKd: −log10 of the molar value.
property-label: pKd

What pKd appears in the records for this sequence with HLA-B*18:01? ELYENKPDV
≤ 4.70
